Test system: AlDH of bacterial sources
Method Notes: Screening of tryptophan metabolites for inhibition of bacterial AlDH activity in vitro
Type: biochemical
Experimental Context: 100 μM concentration, in vitro
Readout Name: % inhibition of AlDH activity (%)
The answer is to be given in %; state only the numeric part.

Example results:
Nc1ccccc1C(=O)O	9
NCCc1c[nH]c2ccc(O)cc12 [5-hydroxytryptamine]	15
N[C@@H](Cc1c[nH]c2ccccc12)C(=O)O	2
c1ccc2c(c1)[nH]c1cnccc12	23
OCCc1c[nH]c2ccc(O)cc12 [5-hydroxytryptophol]	7

[in] // lookup % inhibition of AlDH activity for "O=C(O)c1cccnc1C(=O)O"
[out] 13

[in] Further, for "O=C(O)c1ccc2ccccc2n1" ?
[out] 7

[in] Further, for NC(=O)c1cccnc1 [nicotinamide] ?
[out] 7

[in] Further, for "O=C(O)Cc1c[nH]c2ccccc12" ?
[out] 11

[in] Further, for "NCCc1c[nH]c2ccccc12" ?
[out] 0

[in] Further, for "O=C(O)c1cc(=O)c2ccccc2[nH]1" ?
[out] 90
